# System: PXR homodimer (NR concentration 270 nM)
# protocol: PBM binding z-score (relative to random genomic background probes); higher = stronger binding; sequences stand for … in GC…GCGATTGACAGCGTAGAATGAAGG
PBM binding z-score vs 0.05: at or above is t, below is f.

sequence.text: TCCAGTTGGTCACGGAGGTCACACACGACGGGTA
class.assignment: t
--
sequence.text: TAGCATAGGTCAGATCGGGCCAGTATACGCTATA
class.assignment: f
--
sequence.text: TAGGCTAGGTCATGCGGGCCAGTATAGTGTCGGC
class.assignment: f
--
sequence.text: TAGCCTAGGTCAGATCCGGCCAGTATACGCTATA
class.assignment: f
--
sequence.text: CCGAGTAGGTTATGGGACATTCAGGCAACGGTGA
class.assignment: t
--
sequence.text: CGTCCAAGGTCAAAGGTCAGTGATGAGATGACGG
class.assignment: t
--
sequence.text: TGAAGGAGGTTATAAGATCAGGGAACGTTGCAAA
class.assignment: t
--
sequence.text: GCATCTAGGTAATACAAGGTGAAAGTCCGATTGT
class.assignment: f

Determine whether this sequence has PBM binding z-score no lower than 0.05: CGAACTAGGTCATCCGGGACAGTGAATACATTGA t

Determine whether this sequence has PBM binding z-score no lower than 0.05: CGTAAAAGTTCAAGGTAACGTAACAGAAAGCAGC t

Determine whether this sequence has PBM binding z-score no lower than 0.05: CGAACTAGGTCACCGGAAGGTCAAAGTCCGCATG t

Determine whether this sequence has PBM binding z-score no lower than 0.05: TCATATAGGTACAAGGTGAAAGTCGGTGTGGTAA t

Determine whether this sequence has PBM binding z-score no lower than 0.05: AGATCGAGGGCACGCTGAGTTGATAGCAGAGTAG t

Determine whether this sequence has PBM binding z-score no lower than 0.05: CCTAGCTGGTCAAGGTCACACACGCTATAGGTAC t

Determine whether this sequence has PBM binding z-score no lower than 0.05: CATACTGGGCCATCAGGTCATTGATATCAACGTT t

---

# Tested on: RARb homodimer (NR concentration 270 nM)
# protocol: PBM binding z-score (relative to random genomic background probes); higher = stronger binding; sequences stand for … in GC…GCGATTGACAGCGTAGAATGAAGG
quantity: PBM binding z-score
# respond with the number and nothing more

Guide cases for PBM binding z-score, answers given:
sequence.text: TCTGCTAGGTCAACGATGGTCAGATAATCTGCTA
PBM binding z-score: 3.47

sequence.text: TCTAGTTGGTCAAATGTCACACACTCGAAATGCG
PBM binding z-score: 1.64

sequence.text: CCTATTAGTTGCCCATAAGGGCAACCGAAGCTCG
PBM binding z-score: 1.75

Entry under review: TAGCCTAGGCCATGCGGGCCAGTATAGTGTCGGC . Reported PBM binding z-score? -0.484

Entry under review: GCTAGCAGGCCATTTGGGTCACGCAATGACGGGC . Reported PBM binding z-score? 2.27

---

# Tested on: VDR:RXRa (NR concentration 270 nM, RXRa partner concentration 90 nM)
# protocol: PBM binding z-score (relative to random genomic background probes); higher = stronger binding; sequences stand for … in GC…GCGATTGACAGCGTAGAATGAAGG
PBM binding z-score vs 0.9: at or above is condition met, below is condition not met.

# count of solved cases: 8
sequence.text: TCGAATAGGTTAGGGGCATTCAGAATGGCGTCGA
class.assignment: condition not met

sequence.text: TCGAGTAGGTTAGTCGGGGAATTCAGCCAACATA
class.assignment: condition not met

sequence.text: TCAGGCAGGTGAAGGTAACTCAGGTACGCAGTCG
class.assignment: condition not met

sequence.text: ACTCGTTGGTCAGCTGAGGTCACACACAATTCGG
class.assignment: condition met

sequence.text: TAGCCTAGGTCATGCGGGCCAGTATTGTGTCGGC
class.assignment: condition met

sequence.text: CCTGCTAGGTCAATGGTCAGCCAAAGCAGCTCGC
class.assignment: condition not met

sequence.text: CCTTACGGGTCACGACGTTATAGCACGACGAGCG
class.assignment: condition met

sequence.text: CGTCGAAGGTCAGAGAGGTCAGTGAATGCCGAGT
class.assignment: condition met

Determine whether this sequence has PBM binding z-score no lower than 0.9: CCTACTGGGCCATTCAGAGCTCATTGATCATATG condition not met

Determine whether this sequence has PBM binding z-score no lower than 0.9: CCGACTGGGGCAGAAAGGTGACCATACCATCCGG condition not met

Determine whether this sequence has PBM binding z-score no lower than 0.9: GCTAGCAGGCCATTTGGGTCACTCTATGACGGGC condition not met
